Catalogue of combination Emax values
system: VCaP (Prostate Carcinoma); experiment: combination Emax (second highest fraction inhibited in the dose matrix, 72 h); higher = more inhibition; extreme values may be limits of the assay

Please review the following examples before continuing.
• CN(CCO)CC[C@H](CSc1ccccc1)Nc1ccc(S(=O)(=O)NC(=O)c2ccc(N3CCC([C@@H](O)c4ccccc4-c4ccc(Cl)cc4)CC3)cc2)cc1S(=O)(=O)C(F)(F)F [AZD4320] + C[C@@H]1COCCN1C2=NC(=NC(=C2)C3(CC3)[S@](=N)(=O)C)C4=C5C=CNC5=NC=C4 [AZD6738] (first compound max 1 µM, 7x7, partner max 10 µM) = 0.577
• Cn1cnc2c(F)c(Nc3ccc(Br)cc3Cl)c(C(=O)NOCCO)cc21 [Selumetinib] + C[C@@H]1COCCN1C2=NC(=NC(=C2)C3(CC3)[S@](=N)(=O)C)C4=C5C=CNC5=NC=C4 [AZD6738] (first compound max 10 µM, 7x7, partner max 10 µM) = 0.303
• CN(CCO)CC[C@H](CSc1ccccc1)Nc1ccc(S(=O)(=O)NC(=O)c2ccc(N3CCC([C@@H](O)c4ccccc4-c4ccc(Cl)cc4)CC3)cc2)cc1S(=O)(=O)C(F)(F)F [AZD4320] + C1CN(CCC1(C(=O)N[C@@H](CCO)C2=CC=C(C=C2)Cl)N)C3=NC=NC4=C3C=CN4 [Capivasertib] (first compound max 1 µM, 7x7, partner max 3 µM) = 0.404
• CN(CCO)CC[C@H](CSc1ccccc1)Nc1ccc(S(=O)(=O)NC(=O)c2ccc(N3CCC([C@@H](O)c4ccccc4-c4ccc(Cl)cc4)CC3)cc2)cc1S(=O)(=O)C(F)(F)F [AZD4320] + Cc1cc2ncnn2cc1Nc1ncc2c(n1)n(C1CCOCC1)c(=O)n2C [AZD7648] (first compound max 1 µM, 7x7, partner max 10 µM) = 0.165
• C[C@@H](c1ccc2nccn2c1)n1nnc2ncc(-c3cnn(C)c3)nc21 [Savolitinib] + Cc1c2c(nn1C)CSCc1cc(n(C)n1)CSc1cc(c3ccccc3c1)OCCCc1c(C(=O)O)n(C)c3c-2c(Cl)ccc13 [AZD5991] (first compound max 1 µM, 7x7, partner max 1 µM) = 0.946

Proceed to the following item.
GET /values?item= NC1(C(=O)N[C@@H](CCO)c2ccc(Cl)cc2)CCN(c2ncnc3[nH]ccc23)CC1 [Capivasertib] + CCN(CCO)CCCOc1ccc2c(Nc3cc(CC(=O)Nc4cccc(F)c4)[nH]n3)ncnc2c1 [AZD2811] (first compound max 10 µM, 7x7, partner max 1 µM) &system= VCaP (Prostate Carcinoma) returns combination Emax: 0.543

====

Catalogue of combination Emax values
test system: COLO-824 (Breast Carcinoma); experiment: combination Emax (second highest fraction inhibited in the dose matrix, 72 h); higher = more inhibition; extreme values may be limits of the assay
Enter a number only.

Please review the following examples before continuing.
- Cc1c2c(nn1C)CSCc1cc(n(C)n1)CSc1cc(c3ccccc3c1)OCCCc1c(C(=O)O)n(C)c3c-2c(Cl)ccc13 [AZD5991] + C[C@@H]1COCCN1C2=NC(=NC(=C2)C3(CC3)[S@](=N)(=O)C)C4=C5C=CNC5=NC=C4 [AZD6738] (first compound max 1 µM, 7x7, partner max 10 µM): 0.868
- Cc1c2c(nn1C)CSCc1cc(n(C)n1)CSc1cc(c3ccccc3c1)OCCCc1c(C(=O)O)n(C)c3c-2c(Cl)ccc13 [AZD5991] + C=CCn1c(=O)c2cnc(Nc3ccc(N4CCN(C)CC4)cc3)nc2n1-c1cccc(C(C)(C)O)n1 [AZD1775] (first compound max 1 µM, partner max 1 µM): 0.667
- CN(CCO)CC[C@H](CSc1ccccc1)Nc1ccc(S(=O)(=O)NC(=O)c2ccc(N3CCC([C@@H](O)c4ccccc4-c4ccc(Cl)cc4)CC3)cc2)cc1S(=O)(=O)C(F)(F)F [AZD4320] + Cn1cnc2c(F)c(Nc3ccc(Br)cc3Cl)c(C(=O)NOCCO)cc21 [Selumetinib] (first compound max 1 µM, 7x7, partner max 3 µM): 1

combination Emax for CC(=O)c1c(C)c2cnc(Nc3ccc(N4CCNCC4)cn3)nc2n(C2CCCC2)c1=O [Palbociclib] + Cc1c2c(nn1C)CSCc1cc(n(C)n1)CSc1cc(c3ccccc3c1)OCCCc1c(C(=O)O)n(C)c3c-2c(Cl)ccc13 [AZD5991] (first compound max 10 µM, 7x7, partner max 1 µM) is 0.708
